# Tested on: KM-20L2
# measurementProtocol: NCI tumour cell line growth inhibition, 48 h
Activity calls are given as the source filed them. Cut-off read from the data, not from the text of the source: active = GI50 up to about 1.1 µM and inactive = higher.
Could you please pick one outcome from this set? active, inactive

Solved entries (count: 2):
molecule	category
COC(=O)C1=CC2OC1(C)C1(CC1)C2=O (stereo not given)	inactive
O=C(Nc1ccc(Cl)c(Cl)c1)C1C(=O)N(c2ccc(Cl)c(Cl)c2)C(=O)/C1=N\O (stereo not given)	inactive

What was the test verdict on CCOC(=O)c1ccc(N2C(=O)Cc3ccccc3C2=O)cc1 ?
inactive

----------
Would you kindly list GI50 for each of these compounds?
# System: MDA-MB-231
# measurementProtocol: NCI tumour cell line growth inhibition, 48 h
Active and inactive are the calls of the source. Cut-off read from the data, not from the text of the source: active = GI50 up to about 1.1 µM and inactive = higher.

For every listed record, write down its GI50.
1. CC12CCC(C(Nc3ccccn3)C1=O)C2(C)C (stereo unspecified)
2. Cn1c(=O)c2c(O)cc(N)nc2n(C)c1=O

["> 100 µM (inactive)", "> 100 µM (inactive)"]

For every listed record, write down its GI50.
1. COc1cc(C2SCC(=O)N2c2ccc(Cl)c(Cl)c2)cc(OC)c1OC (stereo unspecified)
2. CCCCCCCCCCCCCCCCOc1ccc(/C=C/C2=[N+](CCCl)CCO2)cc1
3. COc1ccccc1Nc1nc(N)nc(N)c1N
4. C=CCC(NCc1ccccc1)[C@H](OCc1ccccc1)[C@@H]1COC(C)(C)O1 (stereo partly specified)
5. N#Cc1nc(C(F)(F)F)oc1N

1: > 64.4 µM (inactive); 2: 20.1 µM (inactive); 3: 29.4 µM (inactive); 4: > 100 µM (inactive); 5: > 100 µM (inactive)

----------
Would you kindly list GI50 for each of these compounds?
# Tested on: HOP-62
# measurementProtocol: NCI tumour cell line growth inhibition, 48 h
Calls of active or inactive are those of the source. No stated cut-off is given here; in the data, active = GI50 up to about 1.1 µM and inactive = higher.

See these solved cases before continuing.
compound	measurementTarget	GI50
CC1CCc2sc3nc(S)n(-c4ccccc4)c(=O)c3c2C1 (centres undefined)	HOP-62	36.3 µM (inactive)
CC(=O)NC(C=O)C(O[C@H](C)C(=O)NC(C)C(=O)NC(CCC(N)=O)C(=O)OCc1ccccc1)C(O)C(O)COC(=O)CCNc1c2ccccc2nc2cccc([N+](=O)[O-])c12 (some centres undefined)	HOP-62	2.95 µM (inactive)
N[C@@H](CCC(=O)NC(Cc1ccccc1)C(=O)NCP(=O)(O)O)C(=O)O (some centres undefined)	HOP-62	> 100 µM (inactive)

For every listed record, write down its GI50.
1. Cn1c(=O)c2c(O)cc(N)nc2n(C)c1=O
2. CC1(C)CCOC(Sc2ccccc2)C1 (centres undefined)
3. COc1ccc(-c2c(C#N)c(-c3ccccc3)n(NS(=O)(=O)c3ccccc3)c(=O)c2C#N)cc1
4. Cc1ccc(-c2nc3ccccc3c(=O)n2NC2OC(CO)C(O)C(O)C2O)cc1 (centres undefined)

> 100 µM (inactive)
> 100 µM (inactive)
95.1 µM (inactive)
> 100 µM (inactive)

For every listed record, write down its GI50.
1. COc1cc(C2SCC(=O)N2c2ccc(Cl)c(Cl)c2)cc(OC)c1OC (centres undefined)
2. C/C=C\C(CC(=O)OC)CC(=O)N(CCC1CN(S(=O)(=O)C(F)(F)F)c2ccccc21)Cc1ccc(OC)cc1OC (centres undefined)

1: 24.2 µM (inactive); 2: > 100 µM (inactive)

Cited source: ChEMBL document CHEMBL1201862
